Experiment: Safety evaluation (body weight changes) in pancreatic cancer PA1383 model
Assay type: in vivo, Balb/nude female mice
Details: 60 mg/kg i.p. QD×5/week×2 weeks; Day 18
measure_name: Body weights (g)

{"molecule": "O=P1(NCCCl)OCCCN1CCCl (stereo not shown) [Ifosfamide, reference compound]", "measure_name": "Body weights", "reading_unit": "g", "numeric_value": 23.3}

----------
Assay: Safety evaluation (body weight changes) in gastric cancer GA6201 model
Type: in vivo, BALB/c nude mice
Details: 5 mg/kg tail vein Q7D×3; Day 21
measure_name: Body weights (g)

{"molecule": "C[C@@H](OP(=O)(N1CC1)N1CC1)c1ccc([N+](=O)[O-])c(Oc2cccc(C(=O)N(C)C)c2)c1 [AST-3424]", "numeric_value": 25.5}
{"molecule": "O=[N+]([O-])c1ccc(C(OP(=O)(N2CC2)N2CC2)C(F)(F)F)cc1Oc1ccc(-c2ccc(F)cc2)c(F)c1 (centres unmarked) [AST]", "numeric_value": 25.4}

Ref: patent EP4537832A1
